Would you mind telling me the reported Percent Effect of each entry?
- Species on record: Homo sapiens
- Protocol Text: To identify inhibition of the IFN signalling (Jak-Stat) pathway via expression of an eGFP reporter gene under the control of an IFN-stimulated response element (ISRE) containing MxA promoter.
- Assay type: functional
- Parameters: scale not given: direction of the effect not stated beside the values
- Recorded Conditions: 30 µM

query: Would you kindly share the measured Percent Effect for Cc1noc([C@@H]2CC[C@@H]3[C@@H](CCN3S(=O)(=O)C3CC3)O2)n1 ?
result: 4.51%

query: Given the entry Cc1cn(-c2ccccc2)nc1NS(=O)(=O)c1cccc(C(=O)O)c1 , report its measured Percent Effect.
result: 10.4%

query: For Cc1cc(C)n(CC2CCCN2C(=O)c2ccc3c(c2)nnn3C)n1 (stereo unspecified) , what is its reported Percent Effect?
result: -9.03%

query: Fill blank: measured Percent Effect of the compound Cc1noc(C)c1C(=O)N1CCCC1c1c(C)nn(C)c1Cl (stereo unspecified) is ____.
result: 4.02%

query: Look up Percent Effect for this compound: COC(=O)c1cccc(C(=O)N2CCN(c3ccccc3F)CC2)n1
result: 15.5%

query: Report Percent Effect for CC(C)NC(=O)N1CC[C@@H]2CN(Cc3cccc(Cl)c3)S(=O)(=O)[C@@H]2CC1 please.
result: 35.6%

query: For O=C1CCC2(CCN(Cc3cc(F)cc(F)c3)CC2)CN1CCO , what is its reported Percent Effect?
result: -8.34%

query: Query: Percent Effect; subject: CCc1ncc2c(n1)CN(Cc1nnc(C)o1)CC2
result: -5.4%

query: # lookup: Percent Effect of c1ccc(Cn2cccn2)c(CNCC2CNc3ccnn3C2)c1 (stereo unspecified)
result: 3.57%

query: I am curious: what Percent Effect value has been reported for O=C(NCc1cccnc1)C1=NOC2(CCN(S(=O)(=O)C3CC3)C2)C1 (stereo unspecified) ?
result: -3.44%

query: Given the compound O=C(c1ccccn1)N1CCCC(c2nccn2Cc2ccncc2)C1 (stereo unspecified) , what is its reported Percent Effect?
result: 3.55%

src = ChEMBL document CHEMBL3988442
